Biological target: T1, huNav1.7α + β1-β2-β3 (human Nav1.7α co-expressed with human Navβ1, Navβ2 and Navβ3 on cells) (human)
T1 construct: also called huNav1.7-beta1-beta2-beta3; CHO FlpIn huNav1.7α + β1-β2-β3
Experiment: binding FACS, CHO FlpIn cells
Bmax values by entry
Just the number in %, nothing appended.

1) F010302318 (VHH, also called F0103387G04(L11V, A12V, K33R, R39Q, S50Y, S56D, T60A, W78V, S79Y, T83R, V89L, N93R, S100R, N100cI)) VHH: EVQLVESGGGVVQPGGSLRLSCAASGPVFNINRMAWYRQAPGKQRELVAYVTPTGDISYADSVKGRFTISRDGSKRVYLQMNSLRPEDTALYYCRALLQPDRYSITRTYWGQGTLVTVSS
89
2) F010301866 (VHH, also called F0103387G04(L11V, A12V, K33R, R39Q, S50Y, S56D, T60A, R76N, W78V, S79Y, T83R, V89L, N93R)) VHH: EVQLVESGGGVVQPGGSLRLSCAASGPVFNINRMAWYRQAPGKQRELVAYVTPTGDISYADSVKGRFTISRDGSKNVYLQMNSLRPEDTALYYCRALLQPDSYSNTRTYWGQGTLVTVSS
100
3) F010302321 (VHH, also called F0103387G04(L11V, A12V, K33R, R39Q, S50Y, S56D, T60A, G73R, W78V, S79Y, T83R, V89L, N93R, S100R, N100cI)-FLAG3-HIS6) VHH: EVQLVESGGGVVQPGGSLRLSCAASGPVFNINRMAWYRQAPGKQRELVAYVTPTGDISYADSVKGRFTISRDRSKRVYLQMNSLRPEDTALYYCRALLQPDRYSITRTYWGQGTLVTVSS
91
4) F010301843 (VHH, also called F0103387G04(L11V, A12V, K33R, R39Q, S50Y, S56D, G73N, T83R, V89L, N93R)) VHH: EVQLVESGGGVVQPGGSLRLSCAASGPVFNINRMAWYRQAPGKQRELVAYVTPTGDISYTDSVKGRFTISRDNSKRWSLQMNSLRPEDTALYYCRALLQPDSYSNTRTYWGQGTLVTVSS
100
5) F010302313 (VHH, also called F0103387G04(L11V, A12V, K33R, R39Q, S50Y, S56D, T60A, G73A, W78V, S79Y, T83R, V89L, N93R, N100cI)) VHH: EVQLVESGGGVVQPGGSLRLSCAASGPVFNINRMAWYRQAPGKQRELVAYVTPTGDISYADSVKGRFTISRDASKRVYLQMNSLRPEDTALYYCRALLQPDSYSITRTYWGQGTLVTVSS
100

(Q) Requested field: Bmax. Item: F010302319 (VHH, also called F0103387G04(L11V, A12V, K33R, R39Q, S50Y, S56D, T60A, G73A, W78V, S79Y, T83R, V89L, N93R, S100R, N100cI)-FLAG3-HIS6) VHH: EVQLVESGGGVVQPGGSLRLSCAASGPVFNINRMAWYRQAPGKQRELVAYVTPTGDISYADSVKGRFTISRDASKRVYLQMNSLRPEDTALYYCRALLQPDRYSITRTYWGQGTLVTVSS
(A) 88

(Q) Name the reported Bmax value associated with the binder F010302325 (VHH, also called F0103387G04(L11V, A12V, K33R, R39Q, S50Y, S56D, T60A, G73R, W78V, S79Y, T83R, V89L, N93R)) VHH: EVQLVESGGGVVQPGGSLRLSCAASGPVFNINRMAWYRQAPGKQRELVAYVTPTGDISYADSVKGRFTISRDRSKRVYLQMNSLRPEDTALYYCRALLQPDSYSNTRTYWGQGTLVTVSS
(A) 96

(Q) I am curious: what Bmax value has been reported for F010302320 (VHH, also called F0103387G04(L11V, A12V, K33R, R39Q, S50Y, S56D, T60A, G73A, W78V, S79Y, T83R, V89L, N93R)) VHH: EVQLVESGGGVVQPGGSLRLSCAASGPVFNINRMAWYRQAPGKQRELVAYVTPTGDISYADSVKGRFTISRDASKRVYLQMNSLRPEDTALYYCRALLQPDSYSNTRTYWGQGTLVTVSS ?
(A) 99
